B1: APBB1IP (parent)
chain: FNYSVGFKDLNESLNALEDQDLDA

Variants of: B1
Assay: protein stability index of a GFP-peptide fusion (GPS, HEK-293T) (PSI 1-6); higher = more stable;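 note: lentivirally expressed fusions sorted by FACS into six bins by GFP to DsRed ratio, PSI derived from sequencing read proportions per bin multiplied by bin number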
Conditions: c terminus: a fixed tail appended
Answer No if protein stability index is under 4, and Yes if it is 4 or more.

## Task In plain terms: is recorded protein stability index at least 4 for N2F ?
## Result No

## Task Continue with D9S
## Result No

## Task Proceed to S13W
## Result No

## Task Also, F7P please.
## Result Yes

## Task Similarly, F1N ?
## Result Yes

## Task Entry E12L please
## Result No

## Task Likewise for A24F ?
## Result No

## Task Quick one: L14Q
## Result Yes

## Task Now this one: L14Y
## Result Yes

## Task Record: A24Q
## Result Yes

## Task Similarly, F7T ?
## Result Yes

## Task Then this variant: F1D
## Result Yes

## Task How about L10E ?
## Result Yes

## Task # repeat for D23W
## Result No

## Task What do you have for L10A ?
## Result Yes

Reference for the values: the supplement of paper PMC10567573
